B1: SETD8 (parent)
chain: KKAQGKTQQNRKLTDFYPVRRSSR

variants of: B1; experiment: protein stability index of a GFP-peptide fusion (GPS, HEK-293T) (PSI 1-6); higher = more stable; conditions: c terminus: a fixed tail appended;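 also: lentivirally expressed fusions sorted by FACS into six bins by GFP to DsRed ratio, PSI derived from sequencing read proportions per bin multiplied by bin number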
Quick rule: protein stability index of at least 3 means y, below that means n.

Some solved cases for reference:
Alteration: K1E
Assigned category: n
//
Alteration: R20D
Assigned category: y
//
Alteration: R24S
Assigned category: y

# input for lookup
Query string: Can N10T be said to have protein stability index at or above 3?
Result string: n
